test.details: Fluorescence spectrum in TE buffer of dyes selected from live cell imaging
Type: physicochemical
conditions: dye 10 μM in TE buffer
Use Condition met when the recorded SPECTRUM EM is no lower than 500 nm; use Condition not met when it is lower.

Here's what some known entries look like.
compound: COc1ccc2c(ccc(C=Cc3c(C)ccc4ccccc34)[n+]2C)c1
discrete.label: Condition met
--
compound: Cc1ccc2ccccc2c1/C=C/c1cc[n+](C)c2ccccc12
discrete.label: Condition met
--
compound: COc1ccc(Oc2cccc(C=Cc3ccc4cc(OC)ccc4[n+]3C)c2)cc1
discrete.label: Condition not met
--
compound: COc1ccc2c(ccc(/C=C/c3ccc(OC)c(O)c3Cl)[n+]2C)c1
discrete.label: Condition met
--
compound: COc1ccc2c(ccc(/C=C/C3CCCN3C)[n+]2C)c1 (stereo not shown)
discrete.label: Condition met

Q. Would you say `COc1ccc2c(ccc(/C=C/c3ccoc3)[n+]2C)c1` shows SPECTRUM EM at minimum 500 nm?
A. Condition not met

Q. What would you report for `COc1ccc2c(ccc(/C=C/C=C/c3ccccc3OC)[n+]2C)c1` ?
A. Condition not met

Q. Next compound up: `COc1ccc2c(ccc(/C=C/c3cc4c5c(c3O)CCCN5CCC4)[n+]2C)c1`
A. Condition met

Q. Next compound up: `C[n+]1c(C=Cc2cc(C(C)(C)C)ccc2O)ccc2ccccc21`
A. Condition met

Q. Can you check `C[n+]1c(/C=C/c2ccc(-c3cccs3)s2)ccc2ccccc21` next?
A. Condition met

Q. Now the same for `COc1ccc2c(ccc(/C=C/c3ccc(Br)s3)[n+]2C)c1`
A. Condition not met

###

System: RNA (Type VI from torula yeast)
test.details: In vitro solution assay (primary screening): fluorescent emission fold change upon binding to RNA
conditions: dye 10 μM, RNA 500 μg/mL in TE buffer
Reported Ex(nm) values follow for various molecules
Write the value in nm as a bare number.

The following molecules have reported results that may help.
record.smiles: Cn1c(C=Cc2ccc3ccccc3[n+]2C)cc2ccccc21
unit.of.measure: nm
Ex(nm): 500
--
record.smiles: COc1ccc2c(ccc(C=Cc3cc(OC)c(OC)cc3OC)[n+]2C)c1.[I-]
unit.of.measure: nm
Ex(nm): 500
--
record.smiles: COc1ccc2c(ccc(C=Cc3ccc(N(C)CCC#N)cc3)[n+]2C)c1
unit.of.measure: nm
Ex(nm): 500
--
record.smiles: COc1cc(OC)c(C=Cc2cc[n+](C)cc2)c(OC)c1
unit.of.measure: nm
Ex(nm): 450
--
record.smiles: COc1cc(/C=C/c2cccc[n+]2C)c(OCc2ccccc2)cc1OC
unit.of.measure: nm
Ex(nm): 450

Q. Given `CCN(CC)c1ccc(C=Cc2cccc[n+]2C)cc1` , state its recorded Ex(nm).
A. 500

Q. Please answer likewise for `C[n+]1ccc(/C=C/c2c[nH]c3ccccc23)cc1`
A. 450

Q. How about this molecule: `Cc1cccc(C=Cc2cc3ccccc3n2C)[n+]1C`
A. 450

Q. Another molecule: `COc1ccc2c(ccc(/C=C/c3ccc(N(C)C)cc3)[n+]2C)c1`
A. 500

Q. What do you get for `COc1ccc2c(ccc(/C=C/c3c[nH]c4ccccc34)[n+]2C)c1` ?
A. 450

Q. Then this molecule: `CN(CCC#N)c1ccc(/C=C/c2cc[n+](C)cc2)cc1`
A. 500

Q. Please give the result for `COc1cc(/C=C/c2cc[n+](C)cc2)c(OCc2ccccc2)cc1OC` too.
A. 450

Q. Check `C[n+]1ccc(C=Cc2c(O)ccc3ccccc23)cc1` too.
A. 450

Q. Input `C[n+]1c(C=Cc2cc(Br)c(Cl)c(Br)c2)ccc2ccccc21`
A. 500

Q. Queued: `CN(CCO)c1ccc(/C=C/c2cc[n+](C)cc2)cc1`
A. 500
